Source: paper PMC12455397

# system.under.test: human Keap1 Kelch (Homo sapiens)
# Sequence (Q14145 321-609): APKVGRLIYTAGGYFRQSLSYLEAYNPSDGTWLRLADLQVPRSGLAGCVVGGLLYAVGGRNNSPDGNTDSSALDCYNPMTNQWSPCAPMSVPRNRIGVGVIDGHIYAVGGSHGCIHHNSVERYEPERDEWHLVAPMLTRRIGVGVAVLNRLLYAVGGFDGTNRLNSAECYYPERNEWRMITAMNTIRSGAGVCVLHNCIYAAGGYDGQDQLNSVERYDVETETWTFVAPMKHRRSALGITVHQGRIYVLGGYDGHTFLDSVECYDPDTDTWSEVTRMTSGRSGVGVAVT
# experiment.description: Fluorescence polarization (FP) competition assay with Cy5-Nrf2 peptide probe
# particulars: FP (Ki/nM), Table S2; mean ± SEM, ≥3 individual measurements; NA: not active (measured up to 4 mM)
Each entry below carries its recorded log10(Ki).
value.type: log10(Ki) (log10 of the value in nM)

- compound: "Cc1cc2c(cc1C(CC(=O)O)c1ccc3ccc(OCC(=O)NC4CCCCCC4)cc3c1)OC(F)(F)O2 (centres unmarked)"
  system.under.test: "human Keap1 Kelch (Homo sapiens)"
  numeric.value: 1.15
- compound: "COc1ccc(C(CC(=O)O)c2ccc3ccc(OCC(=O)NC4CCCCCC4)cc3c2)cc1 (centres unmarked)"
  system.under.test: "human Keap1 Kelch (Homo sapiens)"
  numeric.value: 1.50
- compound: "O=C(COc1cccc(N2CCC(C(=O)O)CC2)c1)NC1CCCCC1"
  system.under.test: "human Keap1 Kelch (Homo sapiens)"
  numeric.value: 5.21
- compound: "O=C(O)CC(c1ccc2c(c1)CCO2)c1ccc2ccc(OCC(=O)NC3CCCCCC3)cc2c1 (centres unmarked)"
  system.under.test: "human Keap1 Kelch (Homo sapiens)"
  numeric.value: 1.55
- compound: "O=C(O)CCc1ccc2ccc(OCC(=O)NC3CCCCC3)cc2c1"
  system.under.test: "human Keap1 Kelch (Homo sapiens)"
  numeric.value: 4.19
- compound: "Cc1cc2occc2cc1C(CC(=O)O)c1ccc2ccc(OCC(=O)NC3C=CCCC3)cc2c1 (centres unmarked)"
  system.under.test: "human Keap1 Kelch (Homo sapiens)"
  numeric.value: 1.25
- compound: "Cc1c(Cl)cccc1C(CC(=O)O)c1ccc2ccc(OCC(=O)NC3CCCCCC3)cc2c1 (centres unmarked)"
  system.under.test: "human Keap1 Kelch (Homo sapiens)"
  numeric.value: 1.77
- compound: "COc1ccc(NC(=O)COc2ccc3ccc(CCC(=O)O)cc3c2)cc1"
  system.under.test: "human Keap1 Kelch (Homo sapiens)"
  numeric.value: 4.84
- compound: "Cc1cc2c(cc1C(CC(=O)O)c1ccc3ccc(OCC(=O)NC4C=CCCC4)cc3c1)OCCO2 (centres unmarked)"
  system.under.test: "human Keap1 Kelch (Homo sapiens)"
  numeric.value: 1.28
- compound: "O=C(O)CC(c1ccc2c(c1)OCO2)c1ccc2ccc(OCC(=O)NC3CCCCC3)cc2c1 (centres unmarked)"
  system.under.test: "human Keap1 Kelch (Homo sapiens)"
  numeric.value: 1.76
- compound: "O=C(O)CC(c1ccc2ccc(OCC(=O)NC3CCCCCC3)cc2c1)c1ccc2occc2c1 (centres unmarked)"
  system.under.test: "human Keap1 Kelch (Homo sapiens)"
  numeric.value: 1.58
- compound: "O=C(O)CC(c1ccc2ccc(OCC(=O)NC3CCCCC3)cc2c1)c1ccc2occc2c1 (centres unmarked)"
  system.under.test: "human Keap1 Kelch (Homo sapiens)"
  numeric.value: 1.83
- compound: "COc1cccc(C(CC(=O)O)c2ccc3ccc(OCC(=O)NC4CCCCCC4)cc3c2)c1 (centres unmarked)"
  system.under.test: "human Keap1 Kelch (Homo sapiens)"
  numeric.value: 2.45
- compound: "O=C(O)CC(c1ccc2ccc(OCC(=O)NC3C=CCCC3)cc2c1)c1ccc2occc2c1 (centres unmarked)"
  system.under.test: "human Keap1 Kelch (Homo sapiens)"
  numeric.value: 1.32
- compound: "O=C(O)CC(c1ccc2c(c1)OCO2)c1ccc2ccc(OCC(=O)NC3C=CCCC3)cc2c1 (centres unmarked)"
  system.under.test: "human Keap1 Kelch (Homo sapiens)"
  numeric.value: 1.39
- compound: "Cc1cc2c(cc1C(CC(=O)O)c1ccc3ccc(OCC(=O)NC4C=CCCC4)cc3c1)CCO2 (centres unmarked)"
  system.under.test: "human Keap1 Kelch (Homo sapiens)"
  numeric.value: 1.26
- compound: "Cc1cc2occc2cc1C(CC(=O)O)c1ccc2ccc(OCC(=O)NC3CCCCC3)cc2c1 (centres unmarked)"
  system.under.test: "human Keap1 Kelch (Homo sapiens)"
  numeric.value: 1.39

====

# system.under.test: human Keap1 Kelch (Homo sapiens)
# experiment.description: Fluorescence polarization (FP) competition assay with Cy5-Nrf2 peptide probe
# particulars: Ki (FP), mean, ≥3 individual measurements; text and figures
Quick reference: Ki of the listed items.

- molecule: "O=C(O)CC(c1ccc(Cl)cc1)c1ccc2ccc(OCC(=O)NC3CCCCCC3)cc2c1 (stereo not shown) [Compound 15]"
  unit.text: "nM"
  Ki: 290
- molecule: "O=C(O)CC(c1cccc(Cl)c1)c1ccc2ccc(OCC(=O)NC3CCCCCC3)cc2c1 (stereo not shown) [Compound 16]"
  unit.text: "nM"
  Ki: 54
- molecule: "COc1cccc(C(CC(=O)O)c2ccc3ccc(OCC(=O)NC4CCCCCC4)cc3c2)c1 (stereo not shown) [Compound 14]"
  unit.text: "nM"
  Ki: 280
- molecule: "Cc1cc2c(cc1C(CC(=O)O)c1ccc3ccc(OCC(=O)NC4CCCCCC4)cc3c1)CCO2 (stereo not shown) [Compound 25]"
  unit.text: "nM"
  Ki: 19
- molecule: "Cc1cc2c(cc1C(CC(=O)O)c1ccc3ccc(OCC(=O)NC4C=CCCC4)cc3c1)CCO2 (stereo not shown) [Compound 45]"
  unit.text: "nM"
  Ki: 18
- molecule: "Cc1cc2occc2cc1C(CC(=O)O)c1ccc2ccc(OCC(=O)NC3CCCCCC3)cc2c1 (stereo not shown) [Compound 26]"
  unit.text: "nM"
  Ki: 16
- molecule: "O=C(O)CC(c1ccc2c(c1)OC(F)(F)O2)c1ccc2ccc(OCC(=O)NC3CCCCC3)cc2c1 (stereo not shown) [Compound 32]"
  unit.text: "nM"
  Ki: 51
- molecule: "O=C(O)CC(c1ccc2c(c1)OCO2)c1ccc2ccc(OCC(=O)NC3C=CCCC3)cc2c1 (stereo not shown) [Compound 39]"
  unit.text: "nM"
  Ki: 25
- molecule: "O=C(O)CC(c1ccc2c(c1)OCCO2)c1ccc2ccc(OCC(=O)NC3C=CCCC3)cc2c1 (stereo not shown) [Compound 43]"
  unit.text: "nM"
  Ki: 20
- molecule: "O=C(O)CC(c1ccc2ccc(OCC(=O)NC3CCCCCC3)cc2c1)c1ccc2occc2c1 (stereo not shown) [Compound 21]"
  unit.text: "nM"
  Ki: 38
- molecule: "COc1ccc(C(CC(=O)O)c2ccc3ccc(OCC(=O)NC4CCCCCC4)cc3c2)cc1 (stereo not shown) [Compound 13]"
  unit.text: "nM"
  Ki: 32
- molecule: "Cc1cc2occc2cc1C(CC(=O)O)c1ccc2ccc(OCC(=O)NC3C=CCCC3)cc2c1 (stereo not shown) [Compound 46]"
  unit.text: "nM"
  Ki: 18
- molecule: "Cc1cc2c(cc1C(CC(=O)O)c1ccc3ccc(OCC(=O)NC4C=CCCC4)cc3c1)OCO2 (stereo not shown) [Compound 44]"
  unit.text: "nM"
  Ki: 3.9
- molecule: "Cc1cc2c(cc1C(CC(=O)O)c1ccc3ccc(OCC(=O)NC4C=CCCC4)cc3c1)OC(F)(F)O2 (stereo not shown) [Compound 47]"
  unit.text: "nM"
  Ki: 16
- molecule: "Cc1cc2c(cc1C(CC(=O)O)c1ccc3ccc(OCC(=O)NC4C=CCCC4)cc3c1)OCCO2 (stereo not shown) [Compound 48]"
  unit.text: "nM"
  Ki: 19
- molecule: "O=C(O)CC(c1ccc2c(c1)CCO2)c1ccc2ccc(OCC(=O)NC3CCCCC3)cc2c1 (stereo not shown) [Compound 30]"
  unit.text: "nM"
  Ki: 82
- molecule: "Cc1cc2c(cc1C(CC(=O)O)c1ccc3ccc(OCC(=O)NC4CCCCCC4)cc3c1)OCO2 (stereo not shown) [Compound 24]"
  unit.text: "nM"
  Ki: 10
- molecule: "Cc1cc2c(cc1C(CC(=O)O)c1ccc3ccc(OCC(=O)NC4CCCCC4)cc3c1)CCO2 (stereo not shown) [Compound 35]"
  unit.text: "nM"
  Ki: 32
- molecule: "O=C(O)CC(c1ccc2c(c1)OCO2)c1ccc2ccc(OCC(=O)NC3CCCCCC3)cc2c1 (stereo not shown) [Compound 19]"
  unit.text: "nM"
  Ki: 23
- molecule: "Cc1cc2occc2cc1C(CC(=O)O)c1ccc2ccc(OCC(=O)NC3CCCCC3)cc2c1 (stereo not shown) [Compound 36]"
  unit.text: "nM"
  Ki: 24
- molecule: "O=C(O)CC(c1ccc2ccc(OCC(=O)NC3CCCCC3)cc2c1)c1ccc2occc2c1 (stereo not shown) [Compound 31]"
  unit.text: "nM"
  Ki: 68
- molecule: "O=C(O)CC(c1ccc2c(c1)OC(F)(F)O2)c1ccc2ccc(OCC(=O)NC3C=CCCC3)cc2c1 (stereo not shown) [Compound 42]"
  unit.text: "nM"
  Ki: 30
- molecule: "Cc1cc2c(cc1C(CC(=O)O)c1ccc3ccc(OCC(=O)NC4CCCCCC4)cc3c1)OC(F)(F)O2 (stereo not shown) [Compound 27]"
  unit.text: "nM"
  Ki: 14
- molecule: "O=C(O)CC(c1ccc2c(c1)OC(F)(F)O2)c1ccc2ccc(OCC(=O)NC3CCCCCC3)cc2c1 (stereo not shown) [Compound 22]"
  unit.text: "nM"
  Ki: 34
- molecule: "Cc1cc2c(cc1C(CC(=O)O)c1ccc3ccc(OCC(=O)NC4CCCCC4)cc3c1)OC(F)(F)O2 (stereo not shown) [Compound 37]"
  unit.text: "nM"
  Ki: 7.1
- molecule: "O=C(O)CC(c1ccc2ccc(OCC(=O)NC3C=CCCC3)cc2c1)c1ccc2occc2c1 (stereo not shown) [Compound 41]"
  unit.text: "nM"
  Ki: 21
- molecule: "O=C(O)CC(c1ccc2c(c1)CCO2)c1ccc2ccc(OCC(=O)NC3C=CCCC3)cc2c1 (stereo not shown) [Compound 40]"
  unit.text: "nM"
  Ki: 27
- molecule: "O=C(O)CC(c1ccc2c(c1)OCCO2)c1ccc2ccc(OCC(=O)NC3CCCCC3)cc2c1 (stereo not shown) [Compound 33]"
  unit.text: "nM"
  Ki: 29
